test: S6 kinase pathway phospho-S6 level changes – cell-based, A549, cytoblot, luminescence, serum-stimulated, primary screen (AID 1158); settings: 5 h, higher = more signal;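 note: serum-stimulated A549 lung adenocarcinoma cells; signal is phosphorylated S6 detected by cytoblot immunostaining with HRP secondary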
Hi, to clarify the labels: criterion met covers z-score from 0.03 upward, criterion not met covers anything below 0.03.

[[record]]
compound = "COC(=O)c1c(CC[C@@H](CO)NC(=O)N[C@H](Cc2ccccc2)Cn2cc(-c3ccccn3)nn2)oc(C(C)=O)c1C(=O)OC"
class_assignment = "criterion met"

[[record]]
compound = "O=C(O)[C@H](Cc1ccccc1)n1cc(-c2ccccc2)nn1"
class_assignment = "criterion met"

[[record]]
compound = "COc1ccc(-c2cc3c(c(Cc4ccccc4)n2)[Si](C(C)C)(C(C)C)OC3)cn1"
class_assignment = "criterion met"

[[record]]
compound = "CC(C)[Si](C#CCCCC#N)(O[C@H](c1ccccc1)c1cn(Cc2cccc(Cl)c2)nn1)C(C)C"
class_assignment = "criterion met"

[[record]]
compound = "C=C(CCCC)/C(=C/C[C@H](OC(C)=O)c1ccccc1OCCO)c1cnc2ccccc2c1"
class_assignment = "criterion not met"

[[record]]
compound = "C=CC1c2cc(O)c(OC)cc2CCN1Cc1cccc(OC(F)(F)F)c1 (centres undefined)"
class_assignment = "criterion not met"

[[record]]
compound = "CC(C)CNC(=O)[C@@]1(Cc2ccccc2I)c2ccccc2C(=O)N(Cc2ccccc2C(F)(F)F)[C@H]1c1ccc(CO)cc1"
class_assignment = "criterion not met"

[[record]]
compound = "C=CCC(OC(C)=O)[C@@H]1[C@@H](N(Cc2ccc(-c3cccc(C(F)(F)F)c3)o2)C(=O)Cc2ccc(OC)cc2)c2cc(OCCCO)ccc2N1C(=O)c1ccc2ccccc2c1 (some centres undefined)"
class_assignment = "criterion met"

[[record]]
compound = "C=CCC(OC(C)=O)[C@@H]1[C@@H](N(Cc2ccc(-c3cccc(C(F)(F)F)c3)o2)C(=O)c2cccc3ccccc23)c2cc(OCCCO)ccc2N1C(=O)Cc1ccc2ccccc2c1 (some centres undefined)"
class_assignment = "criterion met"


###

composite z-score values, listed per item
test: binders of probe aHhip on microarray, primary screen, stem cell growth factor project, biochemical, small-molecule microarray, fluorescence 635/667 (AID 1087); conditions: higher = more signal;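 note: score merges spot fluorescence at 667nm with spot signal to noise ratio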
MEASURED_ATTRIBUTE: composite z-score

[[record]]
compound = "C=CC[C@]12N=C(c3ccc(OCCCO)cc3)O[C@H]1c1ccccc1N(CCS(=O)(=O)c1ccccc1)C2=O"
result_value = -0.3

[[record]]
compound = "COCCOC(=O)N1C(=O)[C@@]2(c3ccccc31)[C@H](c1ccc(OCCO)cc1)N1[C@H](c3ccccc3)[C@H](c3ccccc3)OC(=O)[C@H]1[C@@H]2C(=O)N1CCc2cc(OC)c(OC)cc2C1"
result_value = 0.176

[[record]]
compound = "C=C(CCCC)/C(=C/C[C@@H](OC(C)=O)c1cccc(OCCO)c1)c1cnc2ccccc2c1"
result_value = 0.235

[[record]]
compound = "CC(C)OC(=O)C=C1C[C@@H](c2cccc(Cl)c2)O[C@@H](c2cccc(Cl)c2)O1"
result_value = -0.189

[[record]]
compound = "C=CCC(OC(C)=O)[C@@H]1[C@@H](N(Cc2ccc(-c3cccc(C(F)(F)F)c3)o2)C(=O)c2cccc3ccccc23)c2cc(OCCCO)ccc2N1C(=O)Cc1ccc2ccccc2c1 (stereo partly drawn)"
result_value = -0.199

[[record]]
compound = "COc1ccccc1CN1C(=O)c2ccccc2[C@@H](C(=O)NCc2ccccc2)[C@@H]1c1ccc(CO)cc1"
result_value = -0.34

[[record]]
compound = "CCCNC(=O)[C@@]1(Sc2ccc(C)cc2)CC(=O)N(Cc2ccccc2C(F)(F)F)[C@@H]1c1ccc(CO)cc1I"
result_value = -0.0346

[[record]]
compound = "C=CCOC(=O)[C@H]1[C@@H]2C(=O)O[C@@H](c3ccccc3)[C@@H](c3ccccc3)N2[C@@H](c2ccc(OCCOC(=O)[C@H]3C[C@H]4C(=O)N[C@@H](CCCCN(C)C)C(=O)N4[C@H]3c3cccc(OCCO)c3)cc2)[C@]12C(=O)Nc1ccc(I)cc12"
result_value = -0.179

